Biological target: MjCobY (Methanocaldococcus jannaschii, UniProt Q58517, G153D)
Sequence (Q58517 whole entry G153D): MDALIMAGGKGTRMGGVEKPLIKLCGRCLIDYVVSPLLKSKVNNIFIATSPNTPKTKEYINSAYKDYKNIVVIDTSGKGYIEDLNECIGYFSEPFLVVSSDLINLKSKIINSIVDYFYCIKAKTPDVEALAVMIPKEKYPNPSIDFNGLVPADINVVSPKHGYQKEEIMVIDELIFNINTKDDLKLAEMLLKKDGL
Experiment: isothermal titration calorimetry
measured-parameter: Kd (nM)
Express it in nM; write the number only.

input: With MjCobY (Methanocaldococcus jannaschii, UniProt Q58517, G153D) as the test system, provide measured Kd for this compound: Nc1nc2c(ncn2[C@@H]2O[C@H](COP(=O)(O)OP(=O)(O)OP(=O)(O)O)[C@@H](O)[C@H]2O)c(=O)[nH]1
output: 400

Reference for the values: paper PMC3125946
